system: BALB/c 3T3 cells
measured-quantity: Focus formation in the BALB/c 3T3 cell transformation assay

c1ccc2cc3c(ccc4ccccc43)cc2c1 [Benz[a]anthracen, benz[a]anthracene] | −
O=[As]O [Sodium arsenite, sodium arsenite] | +
C[C@H](CCC(=O)O)[C@H]1CC[C@H]2[C@@H]3CC[C@@H]4C[C@H](O)CC[C@]4(C)[C@H]3CC[C@]12C [Lithocholic acid, lithocholic acid] | +
O=C1NS(=O)(=O)c2ccccc21.[Na] [Saccharin sodium, saccharin sodium] | +
O=[N+]([O-])c1cccc2ccccc12 [1-nitronaphthalene] | −

Look up Focus formation in the BALB/c 3T3 cell transformation assay for the entries below, preserving their order.
1. CC(C)(C)c1cc(O)ccc1O [TBHQ, tert-butylhydroquinone]
2. C=C(C)[C@@]12O[C@@]3(c4ccccc4)O[C@@H]1[C@@H]1[C@@H]4O[C@]4(CO)[C@@H](O)[C@]4(O)C(=O)C(C)=C[C@H]4[C@@]1(O3)[C@H](C)[C@H]2OC(=O)/C=C/C=C/c1ccccc1 [Mezerein, mezerein]
3. c1cc2cccc3c4cccc5cccc(c(c1)c23)c54 [Perylene, perylene]

−
+
−

* * *

ability to form foci in the BALB/c 3T3 cell transformation assay data for BALB/c 3T3 cells follow.

Here are 5 compounds together with their reported answers.
OC[C@@H](O)[C@@H](O)[C@H](O)[C@H](O)CO | unable to form foci
[Na+].[Na+].[Na+].[O]=[V]([O-])([O-])[O-] [Sodium orthovanadate, sodium orthovanadate] | able to form foci
CCCCCCCCCCCCCC(=O)O[C@@H]1[C@@H](C)[C@@]2(O)[C@@H](C=C(CO)C[C@]3(O)C(=O)C(C)=C[C@@H]23)[C@@H]2C(C)(C)[C@]12OC(C)=O [TPA, phorbol 12-myristate 13-acetate] | able to form foci
O=[N+]([O-])c1cccc2ccccc12 | unable to form foci
c1cc2cccc3c4cccc5cccc(c(c1)c23)c54 | unable to form foci

Provide reported ability to form foci in the BALB/c 3T3 cell transformation assay for each item, in the same order as listed.
1. [Cl-].[Cl-].[Zn+2] [Zinc chloride, zinc chloride]
2. O=C1O[C@H]([C@@H](O)CO)C([O-])=C1O.[Na+] [Sodium ascorbate, sodium ascorbate]
3. CC(C)(C)c1cc(O)ccc1O [TBHQ, tert-butylhydroquinone]

["able to form foci", "unable to form foci", "unable to form foci"]
